- Tested on: P388 leukemia ip, CD2F1 mice, survival T/C
- assay-name: NCI In Vivo Anticancer Drug Screen. Data for tumor model P388 Leukemia (intraperitoneal) in CD2F1 (CDF1) mice
- run-conditions: endpoint: median survival time; dose: 25.0 mg/kg/injection; schedule: Q01DX009 (ip); vehicle: saline with Tween-80
Inconclusive results and toxic doses are left out. The calls were made as follows: active = survival T/C of 150% or more; inactive = T/C below 125% in these data.
Possible outcomes: Y = active, N = inactive

compound=N#C/C(=C\c1ccco1)C(=O)c1ccco1 study_system="P388 leukemia ip, CD2F1 mice, survival T/C" class_name=N
compound=C=C(CC(=O)Nc1nc(C)c(C(=O)OC)s1)C(=O)O study_system="P388 leukemia ip, CD2F1 mice, survival T/C" class_name=N
compound="COC(=O)C1=C(C)NC(C)=C(C(=O)OC)C(N2C(=O)CCC2=O)C1 (stereo not given)" study_system="P388 leukemia ip, CD2F1 mice, survival T/C" class_name=N
compound="CC(=O)OC1CCC2(C)C(=CCC3C4CC(C5(O)C(=O)Nc6ccccc65)C(=O)C4(C)CCC32)C1 (stereo not given)" study_system="P388 leukemia ip, CD2F1 mice, survival T/C" class_name=N
compound=Cc1cc(NC(=O)CCc2ccc(N3C(N)=NC(N)=NC3(C)C)cc2)ccc1S(=O)(=O)F study_system="P388 leukemia ip, CD2F1 mice, survival T/C" class_name=Y
